Values from PubChem BioAssay (NCI)

# System: HCT-116 colon
# Method notes: NCI-60 one-dose screen, 48 h (100 = growth as untreated, 0 = no growth, -100 = all killed)
# Recorded conditions: 10 µM unless noted
The panel holds about 83,000 compounds, 20% with a hit somewhere; the sample as a whole holds those more often.
Measure name: growth (%)
Give the quantity in %, number only.

# Compound, Target of assay, Readout units, growth
rows = [
    ("CC1CCCN(CCCCCOc2ccc3oc4ccccc4c(=O)c3c2)C1 (stereo not drawn)", "HCT-116 colon", "%", 52.7),
    ("CCOCCc1c(O)nc(SC)[nH]c1=O", "HCT-116 colon", "%", 100),
    ("COc1cc(NC(=O)Nc2cnc(Nc3ccc(N4CCOCC4)cc3)nc2Oc2ccc(C(F)(F)F)cc2)cc(OC)c1", "HCT-116 colon", "%", 104),
]

Please examine the following record next.
Item CCCCOc1nc2ccc(C)cc2cc1/C=C/C(=O)/C=C/c1ccc2c(c1)OCO2 with HCT-116 colon - growth? 10.5
